# System: UACC-257 melanoma
# Procedure summary: NCI-60 one-dose screen, 48 h (100 = growth as untreated, 0 = no growth, -100 = all killed)
# Study conditions: 10 µM unless noted
This is part of a sample that, as a whole, favours compounds with a hit. Of some 83,000 tested, about 20% had one in any assay. Active and inactive are the calls of the source. How the source made its calls: active means growth percent below 10; inactive means the rest.

- Compound: "CN(C[C@H]1Cc2c(cccc2N2CCN(Cc3ccccn3)CC2)CN1)[C@H]1CCCc2cccnc21"
  growth: "93.1% (inactive)"
- Compound: "O=C(O)C1CCCCN1c1nc(Cl)nc(Cl)n1 (stereo unspecified)"
  growth: "100% (inactive)"
- Compound: "COc1ccc2c(c1)[nH]c(=O)c1c3cccc(F)c3cn21"
  growth: "44.8% (inactive)"
- Compound: "COc1ccc(C2CC(c3ccc(OC)cc3OC)=NN2c2ccc(S(N)(=O)=O)cc2)cc1 (stereo unspecified)"
  growth: "77.3% (inactive)"
- Compound: "Cc1cc(N/N=C/c2nc(-c3ccccc3)oc2C)c2cc(Br)ccc2n1"
  growth: "102% (inactive)"
- Compound: "C=COC(=O)CCCCCCCCC"
  growth: "107% (inactive)"
- Compound: "CCN(CC)c1ccc(N=O)cc1"
  growth: "33.2% (inactive)"
- Compound: "Cn1c(=O)cc(NC(=O)CN2CCN(c3cc4c(cc3F)c(=O)c(C(=O)O)cn4C3CC3)CC2)[nH]c1=O"
  growth: "100% (inactive)"
- Compound: "O=C(Nc1ccncc1)C(=O)c1cn(S(=O)(=O)c2ccc(Cl)cc2)c2ccccc12"
  growth: "75.9% (inactive)"
- Compound: "COc1ccc(-c2ccc(-c3ccc(C(=N)N)s3)s2)cc1Cl"
  growth: "106% (inactive)"
- Compound: "CN(C)CCCC(C#N)c1ccccc1 (stereo unspecified)"
  growth: "104% (inactive)"
